System: HCV replicon cells Huh 9B
protocol-summary: HCV replicon assay (luciferase readout)
Assay type: cell-based
Here the recorded IC50 is given for each entry.

Worked examples, 2 compounds total:
compound=Cc1ccc(C(=O)Nc2ccc(N3CCOCC3)cc2)cc1-c1ccc(C(=O)Nc2ccc(Cl)c(Cl)c2)cc1 result="1 to 5 µM"
compound=Cc1ccc(C(=O)Nc2ccc(N3CCOCC3)cc2)cc1-c1ccc(C(=O)Nc2cccc(-c3ccn(C)n3)c2)cc1 result="> 5 µM"

### Prompt // IC50 lookup, key: CC(=O)Nc1cc(NC(=O)c2ccc(-c3cc(C(=O)Nc4ccc(N5CCOCC5)cc4)ccc3C)cc2)ccc1C
### Response 1 to 5 µM

### Prompt // IC50 lookup, key: Cc1ccc(C(=O)Nc2ccc(N3CCOCC3)cc2)cc1-c1ccc(C(=O)NCc2ccccc2Sc2ccccc2CO)cc1
### Response < 1 µM

### Prompt // IC50 lookup, key: Cc1ccc(C(=O)NCC2CCCO2)cc1-c1ccc(C(=O)Nc2ccc(CN3CCS(=O)(=O)CC3)cc2)cc1 (centres unmarked)
### Response 1 to 5 µM

### Prompt // IC50 lookup, key: Cc1ccc(C(=O)Nc2ccc(N3CCOCC3)cc2)cc1-c1ccc(C(=O)Nc2cccc(OCc3ccccc3)c2)cc1
### Response 1 to 5 µM

### Prompt // IC50 lookup, key: CCCCNS(=O)(=O)c1cccc(NC(=O)c2ccc(-c3cc(C(=O)Nc4ccc(N5CCOCC5)cc4)ccc3C)cc2)c1
### Response 1 to 5 µM

### Prompt // IC50 lookup, key: Cc1ccc(C(=O)Nc2ccc(N(C)C)cc2)cc1-c1ccc(C(=O)Nc2ccc(CN3CCS(=O)(=O)CC3)cc2)cc1
### Response < 1 µM

* * *

Tested on: HCV replicon cells Huh 9B
Format: cell-based
condition-info: concentration reducing total cell area by 50% relative to DMSO controls; methylene blue, absorbance 620 nm; 72 h incubation
property: TD50

compound="COc1cccc(C(=O)Nc2ccc(-c3cc(C(=O)Nc4ccc(N5CCOCC5)cc4)ccc3C)cc2)c1 [Example 112]" result="* (* < 50 μM)"
compound=Cc1ccc(C(=O)Nc2ccc(N3CCOCC3)cc2)cc1-c1ccc(NC(=O)c2cccc(Br)c2)cc1 result="** (** > 50 μM)"
compound=Cc1ccc(CNc2cccc(Br)c2)cc1-c1ccc(C(=O)Nc2ccc(CN3CCS(=O)(=O)CC3)cc2)cc1 result="* (* < 50 μM)"
compound=Cc1ccc(C(=O)Nc2ccc(N3CCOCC3)cc2)cc1-c1ccc(CNCc2cccc(Cl)c2)cc1 result="** (** > 50 μM)"
compound=Cc1ccc(C(=O)Nc2ccc(N3CCOCC3)cc2)cc1-c1ccc(NC(=O)c2nc3ccccc3nc2O)cc1 result="** (** > 50 μM)"
compound=Cc1ccc(C(=O)Nc2ccc(C)c(-c3ccc(C(=O)Nc4ccc(CN5CCS(=O)(=O)CC5)cc4)cc3)c2)cc1 result="* (* < 50 μM)"

As a next step, examine the compound that follows.
### Prompt // TD50 lookup, key: COc1cccc(C(=O)Nc2ccc(-c3cc(C(=O)Nc4ccc(N5CCOCC5)cc4)ccc3C)cc2)c1 [Example 107]
### Response ** (** > 50 μM)

* * *

System: HCV replicon cells Huh 9B
Assay type: cell-based
condition-info: concentration reducing total cell area by 50% relative to DMSO controls; methylene blue, absorbance 620 nm; 72 h incubation
property: TD50

compound="Cc1ccc(C(=O)Nc2ccc(N3CCOCC3)cc2)cc1-c1ccc(NC(=O)c2cnccc2C(F)(F)F)cc1 [Example 111]" result="** (** > 50 μM)"
compound="Cc1ccc(NC(=O)C2CC2)cc1-c1ccc(C(=O)Nc2cccc(CN(C)C)c2)cc1 [Example 225]" result="* (* < 50 μM)"
compound="Cc1ccc(NS(=O)(=O)c2ccc(N3CCOCC3)nc2)cc1-c1ccc(C(=O)Nc2ccc(CN3CCS(=O)(=O)CC3)cc2)cc1 [Example 203]" result="* (* < 50 μM)"
compound="Cc1ccc(NC(=O)c2cn[nH]c2)cc1-c1ccc(C(=O)Nc2ccc(N3CCOCC3)cc2)cc1 [Example 108]" result="** (** > 50 μM)"

* * *

Tested on: HCV replicon cells Huh 9B
Assay type: cell-based
condition-info: concentration reducing total cell area by 50% relative to DMSO controls; methylene blue, absorbance 620 nm; 72 h incubation
property: TD50

Worked examples, 5 compounds total:
compound=Cc1ccc(NC(=O)c2ccc(CN3CCS(=O)(=O)CC3)cc2)cc1-c1ccc(C(=O)Nc2ccc(CN3CCS(=O)(=O)CC3)cc2)cc1 property=TD50 result="* (* < 50 μM)"
compound=Cc1cc(NC(=O)C2CC2)ccc1-c1cccc(C(=O)Nc2ccc(N3CCOCC3)cc2)c1 property=TD50 result="* (* < 50 μM)"
compound=Cc1ccc(NC(=O)C2CC2)cc1-c1ccc(C(=O)NCc2cccc(Cl)c2)cc1 property=TD50 result="* (* < 50 μM)"
compound=Cc1ccc(-c2ccc(C(=O)Nc3ccc(CN4CCS(=O)(=O)CC4)cc3)cc2C)cc1NC(=O)C1CC1 property=TD50 result="* (* < 50 μM)"
compound=Cc1ccc(NC(=O)CCC2CCCCC2)cc1-c1ccc(C(=O)Nc2ccc(CN3CCS(=O)(=O)CC3)cc2)cc1 property=TD50 result="* (* < 50 μM)"

### Prompt State its TD50 on HCV replicon cells Huh 9B: Cc1ccc(NC(=O)c2ccc(N3CCOCC3)cc2)cc1-c1ccc(C(=O)Nc2ccc(CN3CCS(=O)(=O)CC3)cc2)cc1
### Response ** (** > 50 μM)

### Prompt State its TD50 on HCV replicon cells Huh 9B: Cc1ccc(NC(=O)c2ccc(N3CCOCC3)cc2)cc1-c1ccc(C(=O)NCc2cccc(Br)c2)cc1
### Response ** (** > 50 μM)

### Prompt State its TD50 on HCV replicon cells Huh 9B: O=C(Nc1ccc(CN2CCS(=O)(=O)CC2)cc1)c1ccc(-c2cc(NC(=O)C3CCCCC3)ccc2OC(F)(F)F)cc1
### Response * (* < 50 μM)

### Prompt State its TD50 on HCV replicon cells Huh 9B: Cc1ccc(NC(=O)CC2CCOCC2)cc1-c1ccc(C(=O)Nc2ccc(CN3CCS(=O)(=O)CC3)cc2)cc1
### Response * (* < 50 μM)

### Prompt State its TD50 on HCV replicon cells Huh 9B: CCCC(=O)Nc1ccc(C)c(-c2ccc(C(=O)Nc3ccc(CN4CCS(=O)(=O)CC4)cc3)cc2)c1
### Response * (* < 50 μM)

### Prompt State its TD50 on HCV replicon cells Huh 9B: Cc1ccc(C(=O)Nc2ccc(N3CCOCC3)cc2)cc1-c1ccc(C(=O)Nc2cccc(C(=O)c3ccccc3)c2)cc1
### Response ** (** > 50 μM)

### Prompt State its TD50 on HCV replicon cells Huh 9B: CCNC(=O)Nc1ccc(C)c(-c2ccc(C(=O)Nc3ccc(CN4CCS(=O)(=O)CC4)cc3)cc2)c1
### Response * (* < 50 μM)

### Prompt State its TD50 on HCV replicon cells Huh 9B: Cc1ccc(CNC(CO)Cc2cnc[nH]2)cc1-c1ccc(C(=O)Nc2ccc(N3CCOCC3)cc2)cc1 (centres unmarked)
### Response * (* < 50 μM)

### Prompt State its TD50 on HCV replicon cells Huh 9B: Cc1ccc(CNc2ccc3cn[nH]c3c2)cc1-c1ccc(C(=O)Nc2ccc(CN3CCS(=O)(=O)CC3)cc2)cc1 [Example 197]
### Response ** (** > 50 μM)

* * *

Tested on: HCV replicon cells Huh 9B
Assay type: cell-based
condition-info: concentration reducing total cell area by 50% relative to DMSO controls; methylene blue, absorbance 620 nm; 72 h incubation
property: TD50

query_smiles=Cc1ccc(C(=O)Nc2ccc(N3CCOCC3)cc2)cc1-c1ccc(CNC2CC2)cc1 property=TD50 result="* (* < 50 μM)"
query_smiles=Cc1ccc(NC(=O)c2ccco2)cc1-c1ccc(C(=O)Nc2ccc(CN3CCS(=O)(=O)CC3)cc2)cc1 property=TD50 result="* (* < 50 μM)"
query_smiles=Cc1ccc(NC(=O)C2(C(F)(F)F)CC2)cc1-c1ccc(C(=O)Nc2ccc(CN3CCS(=O)(=O)CC3)cc2)cc1 property=TD50 result="* (* < 50 μM)"
query_smiles=Cc1ccc(C(=O)Nc2ccc(N3CCOCC3)cc2)cc1-c1ccc(NC(=O)c2ccc(CN3CCS(=O)(=O)CC3)cc2)cc1 property=TD50 result="* (* < 50 μM)"
query_smiles=Cc1ccc(C(=O)Nc2ccc(N3CCOCC3)cc2)cc1-c1ccc(CN[C@@H](CO)C(=O)O)cc1 property=TD50 result="** (** > 50 μM)"
query_smiles=Cc1ccc(NC(=O)C2CC2)cc1-c1ccc(NC(=O)c2ccc(CN3CCS(=O)(=O)CC3)cc2)cc1 property=TD50 result="* (* < 50 μM)"

As a next step, examine the compound that follows.
### Prompt State its TD50 on HCV replicon cells Huh 9B: Cc1ccc(C(=O)Nc2ccc(N3CCOCC3)cc2)cc1-c1ccc(NC(=O)CNC(=O)c2ccccc2)cc1
### Response ** (** > 50 μM)
